# target entity: Protein farnesyltransferase (Bos taurus, UniProt P29702+P49355)
# test protocol: Inhibition of Bovine farnesyl transferase
pIC50: −log10 of the molar value.
Use 8 as the dividing line for pIC50, with the line itself on the 1 side and lower values as 0.

Data request: Assess whether reported pIC50 for Cc1ccccc1-c1cc(C(OCc2ccccc2)c2cncn2C)ccc1C#N (stereo not drawn) sits at 8 or higher.
Data returned: 0

Data request: And then Cn1cncc1C(OCc1ccc(C#N)c(N2CCC[C@@H]2CO)n1)c1ccc(C#N)c(-c2ccccc2C(F)(F)F)c1 (stereo partly drawn) , what is it?
Data returned: 1

Data request: Okay, and Cn1cncc1C(OCc1ccc(C#N)cc1)c1ccc(C#N)c(-c2cc3ccccc3s2)c1 (stereo not drawn) ?
Data returned: 0

Data request: Subsequent entry: CC(=O)N1CCN(c2nc(COC(c3ccc(C#N)c(-c4ccccc4C(F)(F)F)c3)c3cncn3C)ccc2C#N)CC1 (stereo not drawn)
Data returned: 1

Data request: Param item: Cc1cccc(COC(c2ccc(C#N)c(-c3ccccc3C)c2)c2cncn2C)c1 (stereo not drawn)
Data returned: 0

Data request: And for Cn1cncc1C(OCc1ccc(C#N)c(N2CCC[C@@H]2C(=O)O)n1)c1ccc(C#N)c(-c2ccccc2C(F)(F)F)c1 (stereo partly drawn) ?
Data returned: 1
